tested.system: T1, ClpX(E185Q) (E. coli, UniProt P0A6H1 1-424, E185Q)
T1 construct: ClpX, Escherichia coli, ATP hydrolysis defective mutant E185Q; Concentrations are reported for ClpX hexamers; also called ATP hydrolysis defective mutant of ClpX
protocol: co-sedimentation; 250 pmol FtsZ wild type or mutant polymerised with 2 mM GTP in assembly buffer (50 mM MES pH 6.5, 50 mM KCl, 10 mM MgCl2) with acetate kinase and acetyl phosphate; 1.5, 5.0 or 12.5 pmol ClpX(E185Q) and 4 mM ATP added, 25 µl, 10 min; 129,000×g 30 min; SDS-PAGE, Coomassie, densitometry; background without GTP subtracted
recorded.conditions: both partners purified
metric.name: binding result

# binder, metric.name, result
rows = [
    ("FtsZ(Δ375-383) (domain or fragment, E. coli, UniProt P0A9A6 1-374, looked up, Alexa-labelled in the degradation reactions, unlabelled in co-sedimentation; also called deletion mutant lacking the C-terminal nine amino acids; source: E. coli BL21 (λDE3), purified like wild type FtsZ) MFEPMELTNDAVIKVIGVGGGGGNAVEHMVRERIEGVEFFAVNTDAQALRKTAVGQTIQIGSGITKGLGAGANPEVGRNAADEDRDALRAALEGADMVFIAAGMGGGTGTGAAPVVAEVAKDLGILTVAVVTKPFNFEGKKRMAFAEQGITELSKHVDSLITIPNDKLLKVLGRGISLLDAFGAANDVLKGAVQGIAELITRPGLMNVDFADVRTVMSEMGYAMMGSGVASGEDRAEEAAEMAISSPLLEDIDLSGARGVLVNITAGFDLRLDEFETVGNTIRAFASDNATVVIGTSLDPDMNDELRVTVVATGIGMDKRPEITLVTNKQVQQPVMDRYQQHGMAPLTQEQKPVAKVVNDNAPQTAKEPDYLDI", "binding result", "binds"),
    ("E. coli FtsZ (wild type) (natural protein, UniProt P0A9A6 1-383, looked up, FtsZ, Escherichia coli, wild type; Unlabelled in the co-sedimentation assay; labelled with Alexa fluor succinimidyl ester (0.5-5.0 mol/mol) in the degradation reactions; Assembles into polymers with GTP; also called wild type FtsZ) MFEPMELTNDAVIKVIGVGGGGGNAVEHMVRERIEGVEFFAVNTDAQALRKTAVGQTIQIGSGITKGLGAGANPEVGRNAADEDRDALRAALEGADMVFIAAGMGGGTGTGAAPVVAEVAKDLGILTVAVVTKPFNFEGKKRMAFAEQGITELSKHVDSLITIPNDKLLKVLGRGISLLDAFGAANDVLKGAVQGIAELITRPGLMNVDFADVRTVMSEMGYAMMGSGVASGEDRAEEAAEMAISSPLLEDIDLSGARGVLVNITAGFDLRLDEFETVGNTIRAFASDNATVVIGTSLDPDMNDELRVTVVATGIGMDKRPEITLVTNKQVQQPVMDRYQQHGMAPLTQEQKPVAKVVNDNAPQTAKEPDYLDIPAFLRKQAD", "binding result", "binds"),
]

Every entry's value here was drawn from paper PMC3983244.
